measuredOn: Bromodomain-containing protein 3 (Homo sapiens, UniProt Q15059)
Sequence (Q15059 whole entry): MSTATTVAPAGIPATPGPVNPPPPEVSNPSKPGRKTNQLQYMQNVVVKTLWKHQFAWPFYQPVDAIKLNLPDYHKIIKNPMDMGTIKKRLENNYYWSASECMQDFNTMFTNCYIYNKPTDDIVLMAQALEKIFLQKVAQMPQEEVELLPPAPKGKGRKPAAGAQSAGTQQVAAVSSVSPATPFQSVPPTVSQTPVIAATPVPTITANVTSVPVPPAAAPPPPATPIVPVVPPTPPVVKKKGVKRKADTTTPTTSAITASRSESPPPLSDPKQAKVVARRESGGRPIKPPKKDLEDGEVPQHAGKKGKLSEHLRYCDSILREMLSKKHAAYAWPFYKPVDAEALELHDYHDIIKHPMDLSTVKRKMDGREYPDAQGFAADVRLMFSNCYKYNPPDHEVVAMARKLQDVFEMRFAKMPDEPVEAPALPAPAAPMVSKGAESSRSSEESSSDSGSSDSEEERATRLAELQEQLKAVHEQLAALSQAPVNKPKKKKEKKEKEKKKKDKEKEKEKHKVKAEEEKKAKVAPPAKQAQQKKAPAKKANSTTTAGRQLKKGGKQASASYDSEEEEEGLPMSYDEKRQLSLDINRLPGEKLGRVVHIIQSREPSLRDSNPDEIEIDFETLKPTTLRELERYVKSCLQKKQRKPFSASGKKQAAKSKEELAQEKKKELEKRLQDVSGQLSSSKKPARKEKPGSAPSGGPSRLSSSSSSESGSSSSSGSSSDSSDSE
experimentSummary: Binding affinity to BRD3 BD2 (unknown origin) by isothermal titration calorimetric method
recordedEndpoint: Kd

input: Quick check: Kd of "CC(=O)NCCCCn1c2c(c3ccccc31)C(=O)NCC2" ?
output: > 300 µM

###

experimentSummary: AUCinfinity in CD1 mouse at 10 mg/kg, ip measured up to 12 hrs by reverse-phase LC-MS/MS analysis
Assay type: ADME, organism-based
Parameters: dose 10 mg/kg, time infinity, route intraperitoneal
testConditions: in vivo
recordedEndpoint: AUC(0-inf) (µM·h)
A number alone suffices; assume µM·h.

input: I have this compound here, COCc1nc2cnc3cc(-c4c(C)noc4C)c(OC[C@H]4CCNC4)cc3c2n1[C@H](C)c1ccccc1 [GSK778] , and I need its recorded AUC(0-inf).
output: 3.34
